# EXPERIMENTAL TARGET: Fibroblast growth factor receptor 1 (Homo sapiens);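 further: values are the mean percent inhibition of FGFR1 across replicate measurements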
# CONDITIONS: at 1 µM
ENDPOINT NAME: inhibition

Consider the following illustrative entries.
NC(=O)c1cccc(Nc2nccc(Nc3cccc4[nH]ncc34)n2)c1 | 9.11%
COc1ccc2cc(-c3c(-c4ccncc4)nc(-c4ccc([S+](C)[O-])cc4)n3C)ccc2c1 (centres undefined) | 17%
COC(=O)Nc1nc2cc(Oc3ccc(NC(=O)Nc4cccc(C(=O)O)c4)cc3)ccc2[nH]1 | -2.27%

Proceed to the following item.
Recorded inhibition (compound `COc1cc2ncn(-c3cc(O[C@@H](C)c4ccccc4Cl)c(C(N)=O)s3)c2cc1OC` ): 17.2%

---

Record form. Attribute: inhibition. Fill in for each entry.
# EXPERIMENTAL TARGET: Ribosomal protein S6 kinase alpha-3 (Homo sapiens);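 further: reported value is a mean inhibition figure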
# CONDITIONS: at 0.1 µM
Answers are plain numbers, in %.

Below: 3 compounds and their reported inhibition.
Nc1nc(-c2ccc3c(c2)C(=Cc2cc(Br)c(O)c(Br)c2)C(=O)N3)cs1 | -0.26
COc1ccc(-c2nn3ncccc3c2-c2ccnc(Nc3ccc(Cl)c(C(F)(F)F)c3)n2)cc1 | 1.72
O=C1Nc2ccc(C(=O)c3ccco3)cc2C1=Cc1cc(Cl)c(O)c(Cl)c1 | 0.85

Consider the following items and state reported inhibition for each.
1. O=C1NC(=O)C(N2CCc3ccccc32)=C1c1ccc(Cl)cc1
2. CS(=O)(=O)Nc1ccc(N/C=C2\C(=O)Nc3ccccc32)cc1
3. Nc1nc(-c2ccccn2)c(-c2ccc3ncccc3n2)s1
4. Cc1cccc(-c2n[nH]cc2-c2ccc3ncccc3n2)n1
5. O=C1NC(=O)C(c2cccc(Cl)c2)=C1Nc1ccc(O)c(Cl)c1
6. NS(=O)(=O)c1cccc(-c2ccc3c(NC(=O)C4CC4)n[nH]c3c2)c1
7. CN1CCC(C(=O)Nc2n[nH]c3nnc(-c4ccccc4)cc23)CC1
8. COC(=O)Nc1nc2cc(Oc3ccc(NC(=O)Nc4cccc(C(=O)O)c4)cc3)ccc2[nH]1

Ans:
1: 2.23; 2: 1.88; 3: 0.06; 4: 1.16; 5: 1.93; 6: 0.8; 7: 1.58; 8: 1.11

Batch request: inhibition per item, same order as input.
1. N#Cc1c(NC(=O)c2cccc3ccccc23)sc2c1CCCC2
2. Cc1nn(C)c2cc(N(C)c3ccnc(Nc4cccc(S(N)(=O)=O)c4)n3)ccc12
3. CCN1CCC(CC(=O)Nc2n[nH]c3nc(-c4cccs4)c(Br)cc23)CC1
4. O=C(Nc1n[nH]c2nc(-c3ccco3)c(Br)cc12)C1CC1
5. COc1cc2ncn(-c3cc(OCc4ccccc4C(F)(F)F)c(C(N)=O)s3)c2cc1OC

Ans:
[1.01, 1.39, -0.78, 0.52, -0.02]

Can you give me inhibition for all of these, one by one?
1. COc1ccc2cc(-c3c(-c4ccncc4)nc(-c4ccc([S+](C)[O-])cc4)n3C)ccc2c1 (configuration not stated)
2. COc1ccccc1Nc1ncc(-c2ccccc2)o1
3. CCCN1CCC(Oc2cc(Nc3nc(Nc4cccc(F)c4C(N)=O)c4cc[nH]c4n3)c(OC)cc2Cl)CC1

Ans:
1.33
-0.3
0.89

---

I'd be grateful if you could share measured inhibition for these entries.
# Test system: Mast/stem cell growth factor receptor Kit (Homo sapiens), P10721 [T670I]
# Sequence (P10721 whole entry T670I): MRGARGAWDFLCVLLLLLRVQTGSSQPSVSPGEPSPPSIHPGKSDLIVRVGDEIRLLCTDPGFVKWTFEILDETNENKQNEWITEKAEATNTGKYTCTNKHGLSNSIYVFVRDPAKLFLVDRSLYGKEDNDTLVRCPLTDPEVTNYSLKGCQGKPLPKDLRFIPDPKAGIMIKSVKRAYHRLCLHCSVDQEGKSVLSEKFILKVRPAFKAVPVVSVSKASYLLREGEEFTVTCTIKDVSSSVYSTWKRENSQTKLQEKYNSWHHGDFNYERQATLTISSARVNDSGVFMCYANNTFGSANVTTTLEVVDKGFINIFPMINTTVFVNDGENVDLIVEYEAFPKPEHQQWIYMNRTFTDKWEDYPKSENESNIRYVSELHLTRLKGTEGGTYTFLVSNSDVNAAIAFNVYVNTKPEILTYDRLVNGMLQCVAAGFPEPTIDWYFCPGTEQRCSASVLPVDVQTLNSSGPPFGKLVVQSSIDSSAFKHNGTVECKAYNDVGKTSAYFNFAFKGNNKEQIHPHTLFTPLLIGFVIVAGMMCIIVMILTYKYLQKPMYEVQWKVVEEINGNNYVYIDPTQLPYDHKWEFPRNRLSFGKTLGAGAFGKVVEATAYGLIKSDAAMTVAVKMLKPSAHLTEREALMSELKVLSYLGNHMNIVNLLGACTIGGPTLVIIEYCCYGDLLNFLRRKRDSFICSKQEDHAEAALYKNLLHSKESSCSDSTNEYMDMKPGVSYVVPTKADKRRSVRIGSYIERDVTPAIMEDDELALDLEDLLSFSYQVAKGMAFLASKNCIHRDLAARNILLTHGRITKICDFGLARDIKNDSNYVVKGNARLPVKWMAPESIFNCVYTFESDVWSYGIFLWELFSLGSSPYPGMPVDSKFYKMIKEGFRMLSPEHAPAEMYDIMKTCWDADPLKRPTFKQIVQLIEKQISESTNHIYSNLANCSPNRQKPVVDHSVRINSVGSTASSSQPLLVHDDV
# CONDITIONS: at 1 µM
Answers are plain numbers, in %.

// solved cases for inhibition follow
CCCN1CCC(Oc2cc(Nc3nc(Nc4cccc(F)c4C(N)=O)c4cc[nH]c4n3)c(OC)cc2Cl)CC1 | 3.06
N#Cc1c(NC(=O)c2cccc3ccccc23)sc2c1CCCC2 | 1.87
Nc1nc(-c2ccccn2)c(-c2ccc3ncccc3n2)s1 | 3.16
CC1=C(C(=O)Nc2ccc3[nH]ncc3c2)C(c2ccc(F)cc2)NC(=O)N1 (stereo not given) | 0.34
CCn1c(-c2nonc2N)nc2c(N3CCCC3)nccc21 | -1.43

Items follow; give inhibition for each.
1. CS(=O)(=O)CCNCc1ccc(-c2ccc3ncnc(Nc4ccc(OCc5cccc(F)c5)c(C(F)(F)F)c4)c3c2)o1
2. CS(=O)(=O)CCNCc1nc(-c2ccc3ncnc(Nc4ccc(F)c(Cl)c4)c3c2)cs1
3. CS(=O)(=O)CCN(CC#N)Cc1ccc(-c2ccc3ncnc(Nc4ccc(OCc5cccc(F)c5)c(Cl)c4)c3c2)o1

Ans:
1. 4.53
2. 2.83
3. 0.88

Answer for every listed entry: what is its inhibition? The entries follow.
1. Cn1cc(C=C2C(=O)Nc3cccnc32)c2ccccc21
2. O=C(Nc1n[nH]c2nc(-c3ccco3)c(Br)cc12)C1CC1
3. NS(=O)(=O)c1cccc(-c2ccc3c(NC(=O)C4CC4)n[nH]c3c2)c1
4. CC1=C(C(=O)Nc2ccc3[nH]ncc3c2)C(c2ccc(Cl)c(Cl)c2)CC(=O)N1 (stereo not given)

Ans:
1. 19.8
2. 1.3
3. -1.9
4. 1.52

List reported inhibition for each of these compounds:
1. COC(=O)Nc1nc2cc(Oc3cccc(NC(=O)Nc4cc(C(F)(F)F)ccc4F)c3)ccc2[nH]1
2. CCn1c(-c2nonc2N)nc2cnc(Oc3cccc(NC(=O)c4ccc(OCCN5CCOCC5)cc4)c3)cc21
3. [O-][S+]1CCN(Cc2ccc(-c3ccc4ncnc(Nc5ccc(OCc6ccccc6)c(F)c5)c4c3)o2)CC1
4. Fc1cccc(COc2ccc(Nc3ncnc4sc(-c5cccs5)cc34)cc2Cl)c1
5. CCn1c(-c2nonc2N)nc2c(C#CC(C)(C)O)nc(OC[C@@H](N)c3ccccc3)cc21
6. COc1ccc(-c2coc3ncnc(N)c23)cc1
7. COc1cccc(-n2ncc3c(N/N=C/c4cccc(F)c4)ncnc32)c1
8. CCn1c(-c2nonc2N)nc2ccncc21

Ans:
1: 2.17; 2: 4.8; 3: 1.07; 4: 2.96; 5: -0.45; 6: 1.89; 7: 7.07; 8: 3.05

---

# EXPERIMENTAL TARGET: Tyrosine-protein kinase receptor UFO (Homo sapiens)
# CONDITIONS: at 1 µM
# Description: GSK_PKIS: AXL mean inhibition at 1 uM [Nanosyn]
I'd appreciate it if you could supply inhibition values for the items below.
One number for each entry, in %.

Examples with their reported inhibition follow.
CS(=O)(=O)CCNCc1nc(-c2ccc3ncnc(Nc4ccc(F)c(Cl)c4)c3c2)cs1 | 0.38
Nc1ncnc2occ(-c3ccc(NC(=O)Nc4cccc(C(F)(F)F)c4)cc3)c12 | 45.3
CCn1c(-c2nonc2N)nc2c(N3CCCC3)nccc21 | 4.04
O=C1NC(=O)C(c2ccccc2Cl)=C1Nc1cccc(O)c1 | -1.28

I have 6 molecules here; please give me inhibition for each one.
1. COc1ccc(-c2coc3ncnc(N)c23)cc1
2. Nc1nc(-c2ccc3c(c2)C(=Cc2cc(Br)c(O)c(Br)c2)C(=O)N3)cs1
3. COC(=O)Nc1nc2cc(Oc3ccc(NC(=O)Nc4cccc(C(=O)O)c4)cc3)ccc2[nH]1
4. COc1cccc(-n2ncc3c(N/N=C/c4cccc(F)c4)ncnc32)c1
5. CCCN1CCC(Oc2cc(Nc3nc(Nc4cccc(F)c4C(N)=O)c4cc[nH]c4n3)c(OC)cc2Cl)CC1
6. CS(=O)(=O)Nc1ccc(N/C=C2\C(=O)Nc3ccccc32)cc1

Ans:
[-2.11, 2.96, -0.32, 1.49, 6.29, 4.47]

Give inhibition for all molecules that follow.
1. Cc1nn(C)c2cc(N(C)c3ccnc(Nc4cccc(S(N)(=O)=O)c4)n3)ccc12
2. COc1cc2c(cc1Nc1nc(N3CCc4ccccc43)c3cc[nH]c3n1)N(C(=O)CN(C)C)CC2
3. COc1cc2ncn(-c3cc(O[C@@H](C)c4ccccc4Cl)c(C(N)=O)s3)c2cc1OC

Ans:
1: -1.13; 2: 21.4; 3: -5.82

---

# EXPERIMENTAL TARGET: Macrophage colony-stimulating factor 1 receptor (Homo sapiens) (UniProt P07333);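 further: mean inhibition of FMS, from the GSK PKIS screening set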
# Sequence (P07333 whole entry): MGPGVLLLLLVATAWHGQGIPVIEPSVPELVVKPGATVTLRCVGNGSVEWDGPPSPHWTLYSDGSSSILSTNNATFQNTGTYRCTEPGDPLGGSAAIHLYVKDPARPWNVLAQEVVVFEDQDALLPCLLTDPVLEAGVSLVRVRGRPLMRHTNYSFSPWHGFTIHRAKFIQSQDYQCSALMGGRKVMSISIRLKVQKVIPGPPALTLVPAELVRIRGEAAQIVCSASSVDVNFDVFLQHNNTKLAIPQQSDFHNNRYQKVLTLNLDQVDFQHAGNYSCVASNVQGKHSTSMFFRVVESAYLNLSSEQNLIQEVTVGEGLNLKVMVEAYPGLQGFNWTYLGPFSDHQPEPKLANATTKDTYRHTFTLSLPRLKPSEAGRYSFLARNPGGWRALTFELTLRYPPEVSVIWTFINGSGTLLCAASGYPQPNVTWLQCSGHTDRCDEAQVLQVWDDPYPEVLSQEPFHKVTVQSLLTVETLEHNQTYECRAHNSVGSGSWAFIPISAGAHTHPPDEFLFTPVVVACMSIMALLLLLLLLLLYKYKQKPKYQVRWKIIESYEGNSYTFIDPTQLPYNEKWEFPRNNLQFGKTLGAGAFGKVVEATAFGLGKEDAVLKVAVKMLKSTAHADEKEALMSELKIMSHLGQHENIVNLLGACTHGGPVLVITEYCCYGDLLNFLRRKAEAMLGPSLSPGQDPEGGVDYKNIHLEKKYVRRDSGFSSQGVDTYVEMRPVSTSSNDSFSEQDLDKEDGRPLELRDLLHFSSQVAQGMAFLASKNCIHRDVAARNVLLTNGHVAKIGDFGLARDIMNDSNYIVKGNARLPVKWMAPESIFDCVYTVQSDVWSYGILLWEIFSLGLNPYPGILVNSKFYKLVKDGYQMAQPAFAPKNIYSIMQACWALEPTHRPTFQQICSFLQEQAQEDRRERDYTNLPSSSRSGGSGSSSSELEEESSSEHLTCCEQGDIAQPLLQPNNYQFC
# CONDITIONS: at 1 µM
ENDPOINT NAME: inhibition (%)
Answers are plain numbers, in %.

Example cases with answers are listed next.
Nc1nc(-c2ccc3c(c2)C(=Cc2cc(Br)c(O)c(Br)c2)C(=O)N3)cs1 | 2.56
CS(=O)(=O)CCNCc1ccc(-c2ccc3ncnc(Nc4ccc(OCc5ccccc5)c(Cl)c4)c3c2)o1 | 10
CS(=O)(=O)Nc1ccc(N/C=C2\C(=O)Nc3ccccc32)cc1 | 41.7

For every item in the list below, what is its measured inhibition?
1. Cc1nn(C)c2cc(N(C)c3ccnc(Nc4cccc(S(N)(=O)=O)c4)n3)ccc12
2. CCn1c(-c2nonc2N)nc2cncc(C(=O)N3CCNCC3)c21
3. COc1cc2ncn(-c3cc(O[C@H](C)c4ccccc4Cl)c(C(N)=O)s3)c2cc1OC
4. CNC(=O)c1cncc(/C=C/c2c(Cl)cccc2Cl)c1
5. NCc1ccc(-c2nc(-c3ccc(Cl)c(O)c3)c(-c3ccncc3)[nH]2)cc1
6. COc1cccc(-n2ncc3c(N/N=C/c4cccc(F)c4)ncnc32)c1

Ans:
1: 93.9; 2: 5.74; 3: 41.9; 4: 41.1; 5: 5.68; 6: 3.43

Hi! Can you tell me inhibition for each of these compounds?
1. Cc1cccc(-c2n[nH]cc2-c2ccc3ncccc3n2)n1
2. CS(=O)(=O)CCN(CC#N)Cc1ccc(-c2ccc3ncnc(Nc4ccc(OCc5cccc(F)c5)c(Cl)c4)c3c2)o1
3. COc1ccc(-c2ccncc2)cc1C(N)=O
4. Cc1ccc(C(=O)NC2CCCCC2)cc1-c1ccc(C(=O)NCC2CC2)cc1
5. Fc1cccc(COc2ccc(Nc3ncnc4cc(-c5ccc[nH]5)sc34)cc2Cl)c1

Ans:
[2.47, 5.44, 5.33, 5.17, 8.96]

# map each compound to its inhibition
1. COc1cc(C=NNc2ncnc3c2cnn3-c2ccccc2)ccc1O
2. COc1ccc(-c2coc3ncnc(N)c23)cc1
3. CCn1c(-c2nonc2N)nc2cnc(Oc3cccc(NC(=O)c4ccc(OCCN5CCOCC5)cc4)c3)cc21
4. CCN1CCC(CC(=O)Nc2n[nH]c3nc(-c4cccs4)c(Br)cc23)CC1

Ans:
26.8
2.83
2.86
0.93
